assayed_target: WEE1 (Homo sapiens, UniProt P30291)
Construct: purchased Thermo Fisher PR7373A
Sequence (P30291 whole entry): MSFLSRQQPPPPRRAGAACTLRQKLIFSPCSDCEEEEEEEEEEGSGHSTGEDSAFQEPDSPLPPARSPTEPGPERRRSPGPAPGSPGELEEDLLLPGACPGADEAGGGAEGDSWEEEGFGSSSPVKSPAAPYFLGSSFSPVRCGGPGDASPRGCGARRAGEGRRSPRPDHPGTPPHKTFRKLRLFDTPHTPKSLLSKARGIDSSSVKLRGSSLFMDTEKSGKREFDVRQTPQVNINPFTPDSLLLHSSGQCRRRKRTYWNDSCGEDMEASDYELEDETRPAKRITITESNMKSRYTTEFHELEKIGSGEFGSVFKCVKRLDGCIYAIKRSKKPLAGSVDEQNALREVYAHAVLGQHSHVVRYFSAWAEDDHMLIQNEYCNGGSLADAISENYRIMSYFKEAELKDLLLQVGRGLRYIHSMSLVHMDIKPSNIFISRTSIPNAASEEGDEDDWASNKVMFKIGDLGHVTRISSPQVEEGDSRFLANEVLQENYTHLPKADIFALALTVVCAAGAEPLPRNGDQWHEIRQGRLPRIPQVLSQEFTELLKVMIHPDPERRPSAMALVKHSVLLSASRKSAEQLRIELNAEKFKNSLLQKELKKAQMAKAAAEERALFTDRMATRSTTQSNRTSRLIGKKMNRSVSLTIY
method_description: Selectivity versus WEE1 assay (ADP-Glo enzymatic assay)
Format: biochemical
assay_setup: fold difference in selectivity for PKMYT1 over WEE1; banded; ">N" = at least in this band but could be higher
value_kind: PKMYT1 vs. WEE1 selectivity

Cc1cc(Nc2ncc(C(=O)Nc3c(C)ccc(O)c3C)s2)n(C)n1 [BAA-127]	Y (1000-5000 fold)
Cc1ccc(NC(=O)C(C)(C)O)nc1Nc1ncc(C(=O)Nc2c(C)ccc(O)c2C)s1.Cl [BAA-342]	X (100-<1000 fold)
Cc1cn(-c2ccccc2)nc1Nc1ncc(C(=O)Nc2c(C)ccc(O)c2C)s1 [BAA-361]	X (100-<1000 fold)
Cc1ccc(O)c(C)c1NC(=O)c1cnc(Nc2nn(-c3ccccc3)cc2C#N)s1 [BAA-389]	Y (1000-5000 fold)
COc1ccc2cc(Nc3ncc(C(=O)Nc4c(C)ccc(O)c4C)s3)nn2c1 [BAA-242]	Y (1000-5000 fold)
Cc1ccc(O)c(C)c1NC(=O)c1cnc(Nc2ccn(C(F)F)n2)s1 [BAA-025]	X (100-<1000 fold)

====

Listed compounds paired with reported pIC50
assayed_target: Human PKMYT1 (Homo sapiens)
Construct: Human PKMYT1 75-362 was cloned as a TEV cleavable 6xHis fusion; 6xHis (TEV cleavable) (cleaved yes); made in house; host or cells: bacterial cells
Sequence (Q99640 75-362): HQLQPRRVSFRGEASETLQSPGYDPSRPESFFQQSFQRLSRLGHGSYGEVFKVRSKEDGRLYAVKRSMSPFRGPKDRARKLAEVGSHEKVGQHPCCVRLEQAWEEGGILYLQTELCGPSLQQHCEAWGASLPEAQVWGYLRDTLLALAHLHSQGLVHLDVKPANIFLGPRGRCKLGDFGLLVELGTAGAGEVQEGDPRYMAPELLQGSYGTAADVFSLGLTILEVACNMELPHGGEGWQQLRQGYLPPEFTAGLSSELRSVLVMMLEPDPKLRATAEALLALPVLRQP
method_description: PKMYT1 biochemical ADP-Glo enzymatic assay
assay_setup: ADP-Glo; 15 nM PKMYT1 kinase domain, 500 µM ATP, 60 minutes at 26° C.; banded
pIC50: −log10 of the molar value.
value_kind: pIC50

Cc1ccc(O)c(C)c1NC(=O)c1cnc(Nc2nc(CO)cs2)s1	> 7.30
Cc1cn(CC(=O)O)nc1Nc1ncc(C(=O)Nc2c(C)ccc(O)c2C)s1	> 7.30
Cc1ccc(O)c(C)c1NC(=O)c1cnc(Nc2nn(C)c3cc(Br)ccc23)s1	6.00 to 7.30
Cc1ccc(O)c(C)c1NC(=O)c1cnc(Nc2nc3c(s2)COCC3)s1	6.00 to 7.30
Cc1ccc(O)c(C)c1NC(=O)c1cnc(Nc2cc(C(=O)O)n(C)n2)s1	> 7.30
Cc1ccc(O)c(C)c1NC(=O)c1cnc(Nc2ccn(CCCO)n2)s1	> 7.30
Cc1ccc(O)c(C)c1NC(=O)c1cnc(Nc2ccn(CC(=O)N[C@@H](C)CO)n2)s1	> 7.30
Cc1cn(CC(=O)N2CC3(CCC3)C2)nc1Nc1ncc(C(=O)Nc2c(C)ccc(O)c2C)s1	> 7.30
Cc1ccc(O)c(C)c1NC(=O)c1cnc(NCCC(=O)N2CCOCC2)s1	6.00 to 7.30

====

assayed_target: WEE1 (Homo sapiens)
Construct: purchased Thermo Fisher PR7373A
method_description: Selectivity versus WEE1 assay (ADP-Glo enzymatic assay)
Type: biochemical
assay_setup: WEE1 15 nM; ADP-Glo; banded values
value_kind: IC50

Cc1ccc(O)c(C)c1NC(=O)c1cnc(Nc2n[nH]c3cc(F)cc(F)c23)s1	> 11 µM
COc1cccc(Nc2ncc(C(=O)Nc3c(C)ccc(O)c3C)s2)n1	1 to 11 µM
Cc1ccc(O)c(C)c1NC(=O)c1cnc(Nc2cnn(CC(=O)N3CCCC3)c2)s1	> 11 µM
CCn1cc(C)c(Nc2ncc(C(=O)Nc3c(C)ccc(O)c3C)s2)n1	1 to 11 µM
Cc1cn(CC(=O)N2CCC2C)nc1Nc1ncc(C(=O)Nc2c(C)ccc(O)c2C)s1 (stereo not shown)	1 to 11 µM
Cc1ccc(O)c(C)c1NC(=O)c1cnc(Nc2nn(C)cc2C#N)s1	> 11 µM
Cc1ccc(O)c(C)c1NC(=O)c1cnc(Nc2ccccc2C2CC2)s1	> 11 µM
CCn1cc(C#N)c(Nc2ncc(C(=O)Nc3c(C)ccc(O)c3C)s2)n1	> 11 µM
Cc1ccc(O)c(C)c1NC(=O)c1cnc(Nc2noc(C)c2C)s1	1 to 11 µM
COc1c(Cl)ncnc1Nc1ncc(C(=O)Nc2c(C)ccc(O)c2C)s1	> 11 µM
CCn1nc(Nc2ncc(C(=O)Nc3c(C)ccc(O)c3C)s2)c2cc(C(F)(F)F)ccc21	> 11 µM
CCN(CC(F)(F)F)C(=O)Cn1cc(C)c(Nc2ncc(C(=O)Nc3c(C)ccc(O)c3C)s2)n1	1 to 11 µM
CCOc1ccc(Nc2ncc(C(=O)Nc3c(C)ccc(O)c3C)s2)nc1C	> 11 µM
Cc1ccnc(Nc2ncc(C(=O)Nc3c(C)ccc(O)c3C)s2)n1	> 11 µM
Cc1ccnc(Nc2ncc(C(=O)Nc3c(C)ccc(O)c3C)s2)c1F	> 11 µM
Cc1cn(CCF)nc1Nc1ncc(C(=O)Nc2c(C)ccc(O)c2C)s1	1 to 11 µM
CCN(CC)C(=O)c1cc(Nc2ncc(C(=O)Nc3c(C)ccc(O)c3C)s2)nn1C	1 to 11 µM
CCN(CC)C(=O)C(C)n1ccc(Nc2ncc(C(=O)Nc3c(C)ccc(O)c3C)s2)n1 (stereo not shown)	> 11 µM
CCn1nc(Nc2ncc(C(=O)Nc3c(C)ccc(O)c3C)s2)c2ccccc21	1 to 11 µM
